These measurements were taken from patent US8841456B2.

Record form. Attribute: IC50. Fill in for each entry.
Target: glutathione S-transferase (GST)-fusion human ERK2 protein (Homo sapiens, UniProt P28482)
Construct: purchased Carna Biosciences, Inc; host or cells: E. coli expression system
Sequence (P28482 whole entry, the tested form may be a part): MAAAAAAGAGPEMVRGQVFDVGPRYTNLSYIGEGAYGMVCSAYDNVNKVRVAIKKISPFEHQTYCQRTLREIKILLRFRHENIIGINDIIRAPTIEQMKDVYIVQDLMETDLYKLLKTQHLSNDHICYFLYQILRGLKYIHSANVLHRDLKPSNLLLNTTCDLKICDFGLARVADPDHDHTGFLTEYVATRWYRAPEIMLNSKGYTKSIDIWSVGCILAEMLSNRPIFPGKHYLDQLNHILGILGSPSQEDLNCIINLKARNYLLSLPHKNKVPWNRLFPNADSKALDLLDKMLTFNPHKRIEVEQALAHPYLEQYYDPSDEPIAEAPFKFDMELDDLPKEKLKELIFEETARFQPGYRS
Assay: ERK2 enzyme assay (LabChip mobility shift)
Type: biochemical
Details: 2 nM ERK2, 4.25 μM FL-Peptide 8, 43 μM ATP; read-out: ERK2, IC50
Give bare numbers, in nM.

Cc1n[nH]cc1-c1cnc2ccc(NC(=O)NC3CCCC3)nc2c1 : 7

Switching to the query record.
Q. Entry "COc1cc(Nc2cnc3ccc(NC(=O)NC4CCCC4)nc3c2)cc(OC)c1OC" , system glutathione S-transferase (GST)-fusion human ERK2 protein (Homo sapiens, UniProt P28482): what IC50 was measured?
A. 1220
